Values compiled from the supplement of paper PMC7224384.

Known drug sensitivity score of a selection of compounds
Test system: MDA-MB-453
assay.comment: drug sensitivity score (DSS), in combination with BLU9931 (DSS (weighted AUC score)); higher = more sensitive (stronger viability decrease); extreme values may be limits of the assay
measurement.setup: BLU9931 100 nM; 72 h
quantity: drug sensitivity score

- compound: "CNC(=O)c1ccc(N2C(=S)N(c3cnc(C#N)c(C(F)(F)F)c3)C(=O)C23CCC3)cc1F [Apalutamide]"
  recorded.number: 0
- compound: "COc1c(OCCCN2CCOCC2)ccc2c1N=C(NC(=O)c1cnc(N)nc1)N1CCN=C21"
  recorded.number: 23.4
- compound: "COc1cc(Br)c(Nc2nc(-c3c(C)nc4ncccn34)cs2)c(Br)c1"
  recorded.number: 2
- compound: "C=CC(=O)N1CC/C(=C\\c2ccc(F)c([N+](=O)[O-])c2)C(=O)/C(=C/c2ccc(F)c([N+](=O)[O-])c2)C1"
  recorded.number: 19.3

---

Tested on: MDA-MB-453
assay.comment: drug sensitivity score (DSS), in combination with BLU9931 (DSS (weighted AUC score)); higher = more sensitive (stronger viability decrease); extreme values may be limits of the assay
measurement.setup: BLU9931 100 nM; 72 h
Each record's drug sensitivity score is compared with low band: < 0.7; middle band: ≥ 0.7 and < 10; high band: ≥ 10 to give its class.

- molecule: "CC(C)c1cc(C(=O)N2Cc3ccc(CN4CCN(C)CC4)cc3C2)c(O)cc1O"
  label.value: "high band"
- molecule: "CN1CCN(CCOc2cc(OC3CCOCC3)c3c(Nc4c(Cl)ccc5c4OCO5)ncnc3c2)CC1"
  label.value: "middle band"
- molecule: "O=C(CCCCCCC(=O)Nc1ccccc1)NO"
  label.value: "high band"
- molecule: "O=C(Nc1nc2cccc(-c3ccc(CN4CCS(=O)(=O)CC4)cc3)n2n1)C1CC1"
  label.value: "middle band"
- molecule: "CC1=C2C[C@H]3[C@@H](CC[C@@H]4C[C@H](NS(C)(=O)=O)CC[C@@]43C)[C@@H]2CC[C@@]2(C1)O[C@@H]1C[C@H](C)CN[C@H]1[C@H]2C"
  label.value: "low band"
- molecule: "COCCNCc1ccc(-c2cc3nccc(Oc4ccc(NC(=O)C5(C(=O)Nc6ccc(F)cc6)CC5)cc4F)c3s2)nc1"
  label.value: "low band"
- molecule: "CCOC(=O)CCNc1cc(N2CCc3ccccc3CC2)nc(-c2ccccn2)n1"
  label.value: "high band"
- molecule: "Cc1cccc(-c2nn3c(c2-c2ccnc4ccc(C(N)=O)cc24)CCC3)n1"
  label.value: "low band"
- molecule: "Nc1nc(Cl)nc2c1ncn2[C@@H]1O[C@H](CO)[C@@H](O)[C@@H]1F"
  label.value: "middle band"
- molecule: "COc1ccc(-c2nc(N3CCOCC3)c3sc(CN(C)c4ncc(C(=O)NO)cn4)cc3n2)cn1"
  label.value: "high band"
- molecule: "Cc1cc2c(C(=O)NC[C@H](C)c3ccccc3)c(O)c(O)cc2c(O)c1-c1c(C)cc2c(C(=O)NC[C@H](C)c3ccccc3)c(O)c(O)cc2c1O"
  label.value: "high band"
- molecule: "CC(=O)c1c(C)c2cnc(Nc3ccc(N4CCNCC4)cn3)nc2n(C2CCCC2)c1=O"
  label.value: "middle band"
- molecule: "COc1cc2c(N3CCN(C(=O)Nc4ccc(OC(C)C)cc4)CC3)ncnc2cc1OCCCN1CCCCC1"
  label.value: "low band"
- molecule: "CCCCC(=O)OCC(=O)[C@]1(O)Cc2c(O)c3c(c(O)c2[C@@H](O[C@H]2C[C@H](NC(=O)C(F)(F)F)[C@H](O)[C@H](C)O2)C1)C(=O)c1c(OC)cccc1C3=O"
  label.value: "middle band"

---

Test system: MDA-MB-453
assay.comment: drug sensitivity score (DSS), in combination with BLU9931 (DSS (weighted AUC score)); higher = more sensitive (stronger viability decrease); extreme values may be limits of the assay
measurement.setup: BLU9931 100 nM; 72 h
Could you label it 1 if measured drug sensitivity score is 3 or higher, and 0 otherwise?

- compound: "Cc1c(-c2c(-c3ccc(F)o3)sc3ncnc(O[C@H](Cc4ccccc4OCc4ccnn4CC(F)(F)F)C(=O)O)c23)ccc(OCCN2CCN(C)CC2)c1Cl"
  label.value: 1
- compound: "CC(=O)Nc1cccc(-n2c(=O)n(C3CC3)c(=O)c3c(Nc4ccc(I)cc4F)n(C)c(=O)c(C)c32)c1 [Trametinib]"
  label.value: 0
- compound: "CC(C)(O)CNc1nc(Nc2ccnc(C(F)(F)F)c2)nc(-c2cccc(C(F)(F)F)n2)n1 [Enasidenib]"
  label.value: 0
- compound: "O=C(Nc1cccc(Nc2ncc(Br)c(NCCc3cnc[nH]3)n2)c1)N1CCCC1 [BX-912]"
  label.value: 1
- compound: "CNC(=O)c1ccc(-c2cnc3ncc(Cc4ccc5ncccc5c4)n3n2)cc1F [Capmatinib]"
  label.value: 0
- compound: "CCOc1cc2ncc(C#N)c(Nc3ccc(OCc4ccccn4)c(Cl)c3)c2cc1NC(=O)/C=C/CN(C)C [Neratinib]"
  label.value: 1
- compound: "C[C@H]1Oc2cc(cnc2N)-c2c(nn(C)c2C#N)CN(C)C(=O)c2ccc(F)cc21"
  label.value: 0
- compound: "O=C(O)C1(C(=O)O)CCC1.[NH2-].[NH2-].[Pt+2] [Carboplatin]"
  label.value: 0

---

Reported drug sensitivity score values for the following molecules.
Tested on: MDA-MB-453
assay.comment: drug sensitivity score (DSS), in combination with BLU9931 (DSS (weighted AUC score)); higher = more sensitive (stronger viability decrease); extreme values may be limits of the assay
measurement.setup: BLU9931 100 nM; 72 h
quantity: drug sensitivity score

- molecule: "C#Cc1cccc(Nc2ncnc3cc(OCCOC)c(OCCOC)cc23)c1 [Erlotinib]"
  target.or.test.system: "MDA-MB-453"
  quantity: "drug sensitivity score"
  recorded.number: 4.7
- molecule: "CC[C@H](NC(=O)[C@H](C)NC)C(=O)N1C[C@@H](O)C[C@H]1Cc1c(-c2[nH]c3cc(F)ccc3c2C[C@@H]2C[C@H](O)CN2C(=O)[C@H](CC)NC(=O)[C@H](C)NC)[nH]c2cc(F)ccc12 [Birinapant]"
  target.or.test.system: "MDA-MB-453"
  quantity: "drug sensitivity score"
  recorded.number: 15.8
- molecule: "CCOc1ccn(-c2ccc(F)cc2)c(=O)c1C(=O)Nc1ccc(Oc2ccnc(N)c2Cl)c(F)c1"
  target.or.test.system: "MDA-MB-453"
  quantity: "drug sensitivity score"
  recorded.number: 0
- molecule: "CC(C)C[C@H](NC(=O)CNC(=O)c1cc(Cl)ccc1Cl)B(O)O [Ixazomib]"
  target.or.test.system: "MDA-MB-453"
  quantity: "drug sensitivity score"
  recorded.number: 7.4
- molecule: "Nc1ccccc1NC(=O)c1ccc(CNc2nccc(-c3cccnc3)n2)cc1 [Mocetinostat]"
  target.or.test.system: "MDA-MB-453"
  quantity: "drug sensitivity score"
  recorded.number: 17.7
- molecule: "CC(C)C[C@H](NC(=O)[C@H](CCc1ccccc1)NC(=O)CN1CCOCC1)C(=O)N[C@@H](Cc1ccccc1)C(=O)N[C@@H](CC(C)C)C(=O)[C@@]1(C)CO1 [Carfilzomib]"
  target.or.test.system: "MDA-MB-453"
  quantity: "drug sensitivity score"
  recorded.number: 22.9
- molecule: "CCN1CCN(Cc2ccc(Nc3ncc(F)c(-c4cc(F)c5nc(C)n(C(C)C)c5c4)n3)nc2)CC1 [Abemaciclib]"
  target.or.test.system: "MDA-MB-453"
  quantity: "drug sensitivity score"
  recorded.number: 7.8

---

Tested on: MDA-MB-453
assay.comment: drug sensitivity score (DSS), single agent (DSS (weighted AUC score)); higher = more sensitive (stronger viability decrease); extreme values may be limits of the assay
measurement.setup: BLU9931 0 nM; 72 h
Respond with y for drug sensitivity score values of 7 and above, n for values below.

- compound: "CC(C)(O)CC(=O)NCCn1ccc2ncnc(Nc3ccc(Oc4cccc(C(F)(F)F)c4)c(Cl)c3)c21"
  label.value: "n"
- compound: "CNC(=O)c1cccc(-c2ccc3c(N4CCOC[C@@H]4C)nc(N4CCOC[C@@H]4C)nc3n2)c1"
  label.value: "y"
- compound: "CN[C@@H](C)C(=O)N[C@H]1CN(C(=O)CC(C)C)CC[C@H]2CC[C@@H](C(=O)NC(c3ccccc3)c3ccccc3)N2C1=O"
  label.value: "n"
- compound: "CNC(=O)c1ccc(N2C(=S)N(c3ccc(C#N)c(C(F)(F)F)c3)C(=O)C2(C)C)cc1F [Enzalutamide]"
  label.value: "n"
- compound: "O=C(CCCCCCNC(=O)c1cnc(N(c2ccccc2)c2ccccc2)nc1)NO"
  label.value: "y"
- compound: "CC(=O)OC[C@H]1O[C@@H]([S-])[C@H](OC(C)=O)[C@@H](OC(C)=O)[C@@H]1OC(C)=O.CCP(CC)CC.[Au+]"
  label.value: "y"
- compound: "Nc1cc(C(F)(F)F)c(-c2cc(N3CCOCC3)nc(N3CCOCC3)n2)cn1"
  label.value: "y"
- compound: "CN(C)C/C=C/C(=O)Nc1cc2c(Nc3ccc(F)c(Cl)c3)ncnc2cc1O[C@H]1CCOC1"
  label.value: "n"
- compound: "CC(C)n1cnc2c(NCCc3ccc(O)cc3)nc(-c3csc4ccccc34)nc21"
  label.value: "n"
- compound: "CO[C@@H](C)Cn1c(=O)n(C)c2cnc3ccc(-c4cncc(C(C)(C)O)c4)cc3c21"
  label.value: "y"
- compound: "CCc1nc(C(N)=O)c(Nc2ccc(N3CCC(N4CCN(C)CC4)CC3)c(OC)c2)nc1NC1CCOCC1"
  label.value: "n"
- compound: "CC(C)c1cc(C(=O)N2Cc3ccc(CN4CCN(C)CC4)cc3C2)c(O)cc1O"
  label.value: "y"
- compound: "Cc1ccc(NC(=O)c2ccc(CN3CC[C@H](N(C)C)C3)c(C(F)(F)F)c2)cc1Nc1nccc(-c2cncnc2)n1"
  label.value: "n"
- compound: "COCC[n+]1c2c(n(Cc3cnccn3)c1C)C(=O)c1ccccc1C2=O [Sepantronium bromide]"
  label.value: "y"
- compound: "O=C(O)C1(C(=O)O)CCC1.[NH2-].[NH2-].[Pt+2]"
  label.value: "n"
- compound: "COc1nc(N)nc2c1ncn2[C@@H]1O[C@H](CO)[C@@H](O)[C@@H]1O"
  label.value: "n"
- compound: "O=C1c2c(O)ccc(O)c2C(=O)c2c(NCCNCCO)ccc(NCCNCCO)c21"
  label.value: "n"
- compound: "CCC(C)n1ncn(-c2ccc(N3CCN(c4ccc(OCC5COC(Cn6cncn6)(c6ccc(Cl)cc6Cl)O5)cc4)CC3)cc2)c1=O (stereo unspecified)"
  label.value: "n"
- compound: "Nc1ncn([C@H]2C[C@H](O)[C@@H](CO)O2)c(=O)n1"
  label.value: "n"
- compound: "CN1CCC(COc2cnc(-c3cccc(Cn4nc(-c5cccc(C#N)c5)ccc4=O)c3)nc2)CC1"
  label.value: "n"
- compound: "COc1cc2ncnc(Nc3ccc(F)c(Cl)c3)c2cc1NC(=O)/C=C/CN1CCCCC1"
  label.value: "y"
- compound: "C[C@@H]1CN(CC(=O)Nc2ccc3c(c2)Cc2cccc(-c4cc(=O)cc(N5CCOCC5)o4)c2S3)C[C@H](C)O1"
  label.value: "n"
- compound: "C=CC(=O)Nc1cccc(Nc2nc(Nc3ccc(N4CCN(C(C)=O)CC4)cc3OC)ncc2C(F)(F)F)c1"
  label.value: "y"
- compound: "Cc1cc(C)c(CNC(=O)c2cc(-c3ccc(CN4CCOCC4)cc3)cc3c2cnn3C2CCCC2)c(=O)[nH]1"
  label.value: "n"
- compound: "CC(=O)c1c(C)c2cnc(Nc3ccc(N4CCNCC4)cn3)nc2n(C2CCCC2)c1=O"
  label.value: "n"
- compound: "CN1CCN(C2CCN(C(=O)Nc3cc(Oc4ccc(NC(=O)C5(C(=O)Nc6ccc(F)cc6)CC5)c(F)c4)ccn3)CC2)CC1"
  label.value: "n"
- compound: "Oc1ncnc2[nH]ncc12"
  label.value: "n"
- compound: "C=CC(=O)N1CCC[C@@H](n2nc(-c3ccc(Oc4ccccc4)cc3)c3c(N)ncnc32)C1"
  label.value: "y"
- compound: "Cn1c(=O)n(-c2ccc(C(C)(C)C#N)cc2)c2c3cc(-c4cnc5ccccc5c4)ccc3ncc21"
  label.value: "y"
- compound: "C#Cc1cccc(Nc2ncnc3cc4c(cc23)OCCOCCOCCO4)c1"
  label.value: "n"
- compound: "COC(=O)C[C@](O)(CCCC(C)(C)O)C(=O)O[C@@H]1C(OC)=C[C@]23CCCN2CCc2cc4c(cc2[C@H]13)OCO4"
  label.value: "y"
